Attribution: patent US20030103986A1

Target: T1, ZTNF4 (Homo sapiens (Human), UniProt Q9Y275 134-285, limits assumed, radioiodinated with 125I (Iodobeads) in the binding assays; unlabeled ZTNF4 used to determine nonspecific binding)
T1 construct: also called BAFF
T1 sequence (Q9Y275 134-285 limits assumed): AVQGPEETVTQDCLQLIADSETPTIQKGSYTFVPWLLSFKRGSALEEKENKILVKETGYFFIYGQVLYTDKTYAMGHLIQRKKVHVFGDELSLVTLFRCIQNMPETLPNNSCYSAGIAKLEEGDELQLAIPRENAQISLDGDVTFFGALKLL
Experiment: solution binding: 0.05 nM TACI-Fc with 0.4 pM to 1.5 nM 125I-ZTNF4, Pansorbin precipitation
measuredParameter: Bmax

# lookup: Bmax of TACI (d1-29, d111-154)-Fc5 (Fc fusion) AMRSCPEEQYWDPLLGTCMSCKTICNHQSQRTCAAFCRSLSCRKEQGKFYDHLLRDCISCASICGQHPKQCAYFCENKLRSEPKSSDKTHTCPPCPAPEAEGAPSVFLFPPKPKDTLMISRTPEVTCVVVDVSHEDPEVKFNWYVDGVEVHNAKTKPREEQYNSTYRVVSVLTVLHQDWLNGKEYKCKVSNKALPSSIEKTISKAKGQPREPQVYTLPPSRDELTKNQVSLTCLVKGFYPSDIAVEWESNGQPENNYKTTPPVLDSDGSFFLYSKLTVDKSRWQQGNVFSCSVMHEALHNHYTQKSLSLSPGK
0.018 nM

# lookup: Bmax of TACI (d1-29, d120-154)-Fc5 (Fc fusion) AMRSCPEEQYWDPLLGTCMSCKTICNHQSQRTCAAFCRSLSCRKEQGKFYDHLLRDCISCASICGQHPKQCAYFCENKLRSPVNLPPELREPKSSDKTHTCPPCPAPEAEGAPSVFLFPPKPKDTLMISRTPEVTCVVVDVSHEDPEVKFNWYVDGVEVHNAKTKPREEQYNSTYRVVSVLTVLHQDWLNGKEYKCKVSNKALPSSIEKTISKAKGQPREPQVYTLPPSRDELTKNQVSLTCLVKGFYPSDIAVEWESNGQPENNYKTTPPVLDSDGSFFLYSKLTVDKSRWQQGNVFSCSVMHEALHNHYTQKSLSLSPGK
0.021 nM

# lookup: Bmax of TACI (d1-29)-Fc5 (Fc fusion, Made in CHO DG44 cells) AMRSCPEEQYWDPLLGTCMSCKTICNHQSQRTCAAFCRSLSCRKEQGKFYDHLLRDCISCASICGQHPKQCAYFCENKLRSPVNLPPELRRQRSGEVENNSDNSGRYQGLEHRGSEASPALPGLKEPKSSDKTHTCPPCPAPEAEGAPSVFLFPPKPKDTLMISRTPEVTCVVVDVSHEDPEVKFNWYVDGVEVHNAKTKPREEQYNSTYRVVSVLTVLHQDWLNGKEYKCKVSNKALPSSIEKTISKAKGQPREPQVYTLPPSRDELTKNQVSLTCLVKGFYPSDIAVEWESNGQPENNYKTTPPVLDSDGSFFLYSKLTVDKSRWQQGNVFSCSVMHEALHNHYTQKSLSLSPGK
0.023 nM

# lookup: Bmax of TACI (d1-29, d107-154)-Fc5 (Fc fusion) AMRSCPEEQYWDPLLGTCMSCKTICNHQSQRTCAAFCRSLSCRKEQGKFYDHLLRDCISCASICGQHPKQCAYFCENEPKSSDKTHTCPPCPAPEAEGAPSVFLFPPKPKDTLMISRTPEVTCVVVDVSHEDPEVKFNWYVDGVEVHNAKTKPREEQYNSTYRVVSVLTVLHQDWLNGKEYKCKVSNKALPSSIEKTISKAKGQPREPQVYTLPPSRDELTKNQVSLTCLVKGFYPSDIAVEWESNGQPENNYKTTPPVLDSDGSFFLYSKLTVDKSRWQQGNVFSCSVMHEALHNHYTQKSLSLSPGK
0.01 nM
